- System: human TLR7 (Homo sapiens (Human), UniProt Q9NYK1)
- Sequence (Q9NYK1 27-1049): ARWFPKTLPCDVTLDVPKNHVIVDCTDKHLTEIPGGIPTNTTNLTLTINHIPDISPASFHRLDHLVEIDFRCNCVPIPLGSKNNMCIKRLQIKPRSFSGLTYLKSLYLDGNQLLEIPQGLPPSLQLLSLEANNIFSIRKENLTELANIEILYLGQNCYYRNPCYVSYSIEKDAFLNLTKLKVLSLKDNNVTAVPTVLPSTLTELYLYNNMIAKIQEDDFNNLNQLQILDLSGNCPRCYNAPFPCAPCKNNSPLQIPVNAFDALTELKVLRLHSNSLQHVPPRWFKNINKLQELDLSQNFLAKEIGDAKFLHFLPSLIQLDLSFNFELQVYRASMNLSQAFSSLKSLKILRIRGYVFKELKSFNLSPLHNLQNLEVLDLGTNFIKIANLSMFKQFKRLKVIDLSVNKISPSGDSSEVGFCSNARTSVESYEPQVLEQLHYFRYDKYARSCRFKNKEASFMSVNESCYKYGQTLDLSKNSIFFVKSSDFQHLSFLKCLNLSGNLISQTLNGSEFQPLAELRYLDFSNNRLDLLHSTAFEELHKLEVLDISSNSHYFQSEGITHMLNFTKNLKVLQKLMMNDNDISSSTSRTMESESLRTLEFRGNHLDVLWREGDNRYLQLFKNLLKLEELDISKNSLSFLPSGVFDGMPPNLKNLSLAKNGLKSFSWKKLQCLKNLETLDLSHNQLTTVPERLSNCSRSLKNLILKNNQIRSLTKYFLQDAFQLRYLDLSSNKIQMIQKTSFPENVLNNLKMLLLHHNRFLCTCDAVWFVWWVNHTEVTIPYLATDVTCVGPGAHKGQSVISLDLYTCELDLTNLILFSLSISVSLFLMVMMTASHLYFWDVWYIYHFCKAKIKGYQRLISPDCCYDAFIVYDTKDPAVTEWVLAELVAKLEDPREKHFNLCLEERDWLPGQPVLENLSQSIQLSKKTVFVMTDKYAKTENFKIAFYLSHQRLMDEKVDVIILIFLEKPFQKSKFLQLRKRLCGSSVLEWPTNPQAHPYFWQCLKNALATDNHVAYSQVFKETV
- Experiment Description: TLR7 inhibition reporter assay (HEK-Blue, SEAP)
- Format: cell-based
- Recorded Conditions: HEK-Blue cells overexpressing human TLR7, gardiquimod 7.5 μM stimulation
pIC50: −log10 of the molar value.
Parameter Measured: pIC50

Here is how some compounds turned out for pIC50.
COc1ccc(-c2[nH]c3ccc(-c4cccc(C(=O)NCC(N)=O)c4)cc3c2CC(F)(F)F)cc1OC [Example 28]    6.23
Cc1cc(-c2[nH]c3ccc(-c4nnc(CCCN(C)C)o4)cc3c2C(C)C)ccn1 [Example 77]    7.54
CC(C)c1c(-c2ccnc3[nH]ncc23)[nH]c2ccc(-c3nnc(C[C@@H]4CCCN4)o3)cc12 [Example 104]    7.51
COc1ccc(-c2[nH]c3ccc(-c4nnc([C@@H]5CCCNC5)o4)cc3c2C(C)C)cc1OC [Example 55]    7.49

1 = COc1ccc(-c2[nH]c3ccc(-c4nnc(CN5CCOCC5)o4)cc3c2C(C)C)cc1OC [Example 115]
2 = CC(C)c1c(-c2ccnc3[nH]ncc23)[nH]c2ccc(-c3ccnc4[nH]ncc34)cc12 [Example 177]
3 = COc1ccc(-c2[nH]c3ccc(-c4nnc(CNCCNC(C)=O)o4)cc3c2C(C)C)cc1OC [Example 108]
4 = Cc1cc(-c2[nH]c3ccc(-c4cc5c(s4)CN(C(=O)CN(C)C)CC5)cc3c2C(C)C)ccn1 [Example 305]
Hey, can you sort those compounds up there by pIC50, smallest first? Could you list the labels in the order requested?
3, 1, 2, 4

----------
- System: human TLR7 (Homo sapiens (Human))
- Experiment Description: TLR7 inhibition reporter assay (HEK-Blue, SEAP)
- Recorded Conditions: HEK-Blue cells overexpressing human TLR7, gardiquimod 7.5 μM stimulation
pIC50: −log10 of the molar value.
Parameter Measured: pIC50

CCc1c(-c2ccc(OC)c(OC)c2)[nH]c2ccc(-c3noc(CCOC)n3)cc12    5.40
Cc1cc(-c2[nH]c3ccc(-c4nnc(C(=O)N5CC6CNCC6C5)o4)cc3c2C(C)C)ccn1 (centres unmarked)    6.71
Cc1cc(-c2[nH]c3ccc(-c4ccc(NC(=O)[C@@H]5CCNC5)nc4)cc3c2C(C)C)ccn1    6.77

a = CC(C)c1c(-c2ccc3nccn3c2)[nH]c2ccc(-c3nnc([C@@H]4CCCNC4)o3)cc12
b = Cc1cc(-c2[nH]c3ccc(-c4cc5c(s4)CNCC5)cc3c2C(C)C)ccn1
Quick check, higher pIC50 between a and b ? Give the label under which the chosen entry appears.
b

A = Cc1cc(-c2[nH]c3ccc(-c4nnc(CN5CCNCC5)o4)cc3c2C(C)C)ccn1
B = CC(C)c1c(-c2ccnc3[nH]ncc23)[nH]c2ccc(-c3nnc(CNC4CC4)o3)cc12
C = COc1ccc(-c2[nH]c3ccc(-c4cccc(C(=O)N[C@H]5CC[C@H](N)CC5)c4)cc3c2C(C)C)cc1OC
Hey, can you sort those compounds up there by pIC50, smallest first? Could you list the labels in the order requested?
B, C, A

----------
- System: human TLR7 (Homo sapiens (Human), UniProt Q9NYK1)
- Experiment Description: TLR7 inhibition reporter assay (HEK-Blue, SEAP)
- Recorded Conditions: HEK-Blue cells overexpressing human TLR7, gardiquimod 7.5 μM stimulation
Parameter Measured: IC50 (nM)

Here is how some molecules turned out for IC50.
CC(C)c1c(-c2ccnc3[nH]ncc23)[nH]c2ccc(-c3nnc(C4CCN(CC(=O)N(C)C)CC4)o3)cc12    549
CC(C)c1c(-c2ccc3nccn3c2)[nH]c2ccc(-c3nnc(C(=O)NC4CCN(C(C)C)CC4)o3)cc12    43
Cc1cc(-c2[nH]c3ccc(-c4nnc(C5CCCN(C(C)C)C5)o4)cc3c2CC(F)F)cc(C)n1 (stereo not shown) [Example 327]    26
Cc1cc(-c2[nH]c3ccc(-c4nnc(C5CCCNC5)[nH]4)cc3c2C(C)C)ccn1 (stereo not shown) [Example 178]    220
COc1ccc(-c2[nH]c3ccc(-c4ccnc(C(=O)N5CCCN(C)CC5)c4)cc3c2C(C)C)cc1OC    35

A = Cc1cc(-c2[nH]c3ccc(-c4nc(C(=O)NCCCN5CCCCC5)co4)cc3c2C(C)C)cc(C)n1
B = CNCCNc1ccc(-c2ccc3[nH]c(-c4ccc(OC)c(OC)c4)c(C(C)C)c3c2)cc1
I'm curious, which of these has a smaller IC50 number: A or B ? Give the label under which the chosen entry appears.
A

a = Cc1cc(-c2[nH]c3ccc(-c4ccnc(N)c4)cc3c2C(C)C)ccn1
b = Cc1cc(-c2[nH]c3ccc(-c4nnc(CC5CCCCN5)o4)cc3c2C(C)C)ccn1 (stereo not shown)
c = CC(C)c1c(-c2ccnc3n[nH]cc23)[nH]c2ccc(-c3nccs3)cc12
Hey, can you sort those molecules up there by IC50, smallest first? Could you list the labels in the order requested?
a, b, c

A = COc1ccc(-c2[nH]c3ccc(-c4nnc(CN5CC[C@H](NC(C)=O)C5)o4)cc3c2C(C)C)cc1OC
B = Cc1cc(-c2[nH]c3ccc(-c4ccn5ncnc5c4C)cc3c2C(C)C)cc(C)n1
I'm curious, which of these has a smaller IC50 number: A or B ? Give the label under which the chosen entry appears.
B

----------
- System: human TLR7 (Homo sapiens (Human))
- Experiment Description: TLR7 inhibition reporter assay (HEK-Blue, SEAP)
- Recorded Conditions: HEK-Blue cells overexpressing human TLR7, gardiquimod 7.5 μM stimulation
pIC50: −log10 of the molar value.
Parameter Measured: pIC50

Here is how some compounds turned out for pIC50.
CCc1c(-c2ccc(OC)c(OC)c2)[nH]c2ccc(-c3noc(C4CC(=O)N(C)C4)n3)cc12 (stereo not drawn)    5.48
COc1ccc(-c2[nH]c3ccc(-c4ccc(NCCCN(C)C)cc4)cc3c2C(C)C)cc1OC    6.78
COc1ccc(-c2[nH]c3ccc(-c4cccc(C(=O)NCCNC(C)=O)c4)cc3c2CC(F)(F)F)cc1OC    6.00
COc1ccc(-c2[nH]c3ccc(-c4nnc(C[C@@H]5CCCN5)o4)cc3c2C(C)C)cc1OC    7.22
Cc1cc(-c2[nH]c3ccc(-c4nnc(C5CCCN(C(C)C)C5)o4)cc3c2C(C)C)ccn1 (stereo not drawn) [Example 292]    7.36
CC(C)c1c(-c2ccnc3[nH]ncc23)[nH]c2ccc(-c3nc4n(n3)CCNC4)cc12    5.35
CNCCN1CCC(c2nnc(-c3ccc4[nH]c(-c5ccc(OC)c(OC)c5)c(C(C)C)c4c3)o2)CC1    7.25
COc1ccc(-c2[nH]c3ccc(-c4nnc(C5CCN(C(=O)OC(C)(C)C)CC5)o4)cc3c2C(C)C)cc1OC    5.60

P = CC(C)c1c(-c2ccnc3[nH]ncc23)[nH]c2ccc(-c3ccc4ncccc4c3)cc12
Q = Cc1cc(-c2[nH]c3ccc(-c4ccc(N5CCNCC5)nc4)cc3c2C(C)C)ccn1
I'm curious, which of these has a smaller pIC50 number: P or Q ? Give the label under which the chosen entry appears.
P
(P: 6.22, Q: 7.92)

P = Cc1cc(-c2[nH]c3ccc(-c4ccc(C(=O)N5CCC(N(C)C)CC5)cc4)cc3c2C(C)C)ccn1
Q = CNC(=O)CN1CCc2cc(-c3ccc4[nH]c(-c5cc(C)nc(C)c5)c(C(C)C)c4c3)sc2C1
R = CC(C)c1c(-c2ccnc3[nH]ncc23)[nH]c2ccc(-c3c[nH]nc3C(F)(F)F)cc12
S = CC(C)c1c(-c2ccnc3[nH]ncc23)[nH]c2ccc(-c3nnc(CNCC(C)(C)C)o3)cc12
Hey, can you sort those compounds up there by pIC50, smallest first? Could you list the labels in the order requested?
S, R, Q, P

----------
- System: human TLR8 (Homo sapiens (Human))
- Sequence (Q9NR97 27-1041): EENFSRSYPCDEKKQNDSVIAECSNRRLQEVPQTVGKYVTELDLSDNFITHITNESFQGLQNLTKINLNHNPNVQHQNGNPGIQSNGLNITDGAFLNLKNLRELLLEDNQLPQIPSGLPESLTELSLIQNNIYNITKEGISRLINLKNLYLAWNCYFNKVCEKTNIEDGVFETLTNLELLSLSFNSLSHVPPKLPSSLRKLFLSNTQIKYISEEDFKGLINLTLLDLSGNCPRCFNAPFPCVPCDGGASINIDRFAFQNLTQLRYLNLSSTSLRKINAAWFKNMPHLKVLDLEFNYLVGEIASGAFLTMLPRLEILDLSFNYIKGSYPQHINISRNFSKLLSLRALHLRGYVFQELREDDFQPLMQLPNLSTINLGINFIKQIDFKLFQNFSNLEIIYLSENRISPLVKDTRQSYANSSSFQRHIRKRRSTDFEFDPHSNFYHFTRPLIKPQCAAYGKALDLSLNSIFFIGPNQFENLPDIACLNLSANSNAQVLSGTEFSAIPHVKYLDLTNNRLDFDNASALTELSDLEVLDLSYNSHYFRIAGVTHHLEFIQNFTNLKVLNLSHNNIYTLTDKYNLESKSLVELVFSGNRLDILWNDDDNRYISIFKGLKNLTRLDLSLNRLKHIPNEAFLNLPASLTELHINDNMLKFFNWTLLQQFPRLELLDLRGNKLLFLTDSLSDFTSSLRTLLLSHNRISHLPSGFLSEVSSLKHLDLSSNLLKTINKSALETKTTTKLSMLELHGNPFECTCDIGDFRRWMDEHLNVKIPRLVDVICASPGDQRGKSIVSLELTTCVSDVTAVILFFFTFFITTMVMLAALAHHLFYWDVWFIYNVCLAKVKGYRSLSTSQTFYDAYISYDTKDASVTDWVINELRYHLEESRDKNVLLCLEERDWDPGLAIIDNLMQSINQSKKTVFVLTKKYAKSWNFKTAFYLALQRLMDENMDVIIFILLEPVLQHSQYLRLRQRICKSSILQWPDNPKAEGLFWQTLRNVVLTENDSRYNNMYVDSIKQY
- Experiment Description: TLR8 inhibition reporter assay (HEK-Blue, SEAP)
- Recorded Conditions: HEK-Blue cells overexpressing human TLR8, R848 15.9 μM stimulation
pIC50: −log10 of the molar value.
Parameter Measured: pIC50

C#CCNCc1nnc(-c2ccc3[nH]c(-c4ccc(OC)c(OC)c4)c(C(C)C)c3c2)o1    6.13
Cc1cc(-c2[nH]c3ccc(-c4nnc(CC5CCCCN5)o4)cc3c2C(C)C)ccn1 (stereo not shown)    8.85
CCc1c(-c2ccc(OC)c(OC)c2)[nH]c2ccc(-c3cccnc3)cc12    6.43
Cc1cc(-c2[nH]c3ccc(-c4nc(C(=O)NCC5CNC5)co4)cc3c2C(C)C)cc(C)n1    7.10
COc1ccc(-c2[nH]c3ccc(-c4nc(C(=O)NC5CCN(C(C)C)CC5)cs4)cc3c2C(C)C)cc1OC    7.70

1 = Cc1cc(-c2[nH]c3ccc(-c4nnc(C5CCCNC5)[nH]4)cc3c2C(C)C)ccn1 (stereo not shown) [Example 184]
2 = COc1ccc(-c2[nH]c3ccc(-c4cccc(N5CCN(CC(C)C)CC5)c4)cc3c2C(C)C)cc1OC
3 = Cc1cc(-c2[nH]c3ccc(-c4nnc(C5CCCN(C(C)C)C5)o4)cc3c2C(C)C)ccn1 (stereo not shown) [Example 298]
4 = Cc1cc(-c2[nH]c3ccc(-c4nnc(C(=O)NCCN(C)C)o4)cc3c2C(C)C)cc(C)n1
Descending sort on pIC50 required. Could you list the labels in the order requested?
4, 3, 1, 2

a = CCc1c(-c2ccc(OC)c(OC)c2)[nH]c2ccc(-c3ccncc3)cc12
b = COc1ccc(-c2[nH]c3ccc(-c4nnc(CCN(C)C)o4)cc3c2C(C)C)cc1OC
I'm curious, which of these has a smaller pIC50 number: a or b ? Give the label under which the chosen entry appears.
a
(a: 6.62, b: 8.70)

I = Cc1cc(-c2[nH]c3ccc(-c4nc(C(=O)N5CC6CNCC6C5)co4)cc3c2C(C)C)ccn1 (stereo not shown)
II = COc1ccc(-c2[nH]c3ccc(-c4nnc(C5CCNCC5)[nH]4)cc3c2C(C)C)cc1OC
I'm curious, which of these has a smaller pIC50 number: I or II ? Give the label under which the chosen entry appears.
II
(II: 6.97, I: 8.64)

P = Cc1cc(-c2[nH]c3ccc(-c4nc5c(s4)CN(CC(=O)N(C)C)CC5)cc3c2C(C)C)cc(C)n1
Q = Cc1cc(-c2[nH]c3ccc(-c4nn5c(c4C(N)=O)CNCC5)cc3c2C(C)C)ccn1
I'm curious, which of these has a smaller pIC50 number: P or Q ? Give the label under which the chosen entry appears.
Q
(Q: 8.16, P: 8.46)

// provenance: patent US11420958B2
